B1: H2-Kb / B14 (parent)
chain 1: GEQVEQRPPHLSVREGDSAVIICTYTDPNSYYFFWYKQEPGAGLQLLMKVFSSTEINEGQGFTVLLNKKDKQLSLNLTAAHPGDSAVYFCAVSARGNMGYKLTFGTGTSLLVDP
chain 2: GGIITQTPKFLIGQEGQKLTLKCQQNFNHDTMYWYRQDSGKGLRLIYYSITENDLQKGDLSEGYDASREKKSSFSLTVTSAQKNEMAVFLCASSMGQGASDYTFGSGTRLLVI
chain 3: not shown
chain 4: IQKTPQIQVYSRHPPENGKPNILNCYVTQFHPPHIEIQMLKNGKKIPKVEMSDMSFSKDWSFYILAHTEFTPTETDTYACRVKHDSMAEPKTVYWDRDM
chain 5: SIINFEKL

- Variants of: B1
- assayProtocol: % of reporter cells activated (NFAT-GFP), raw; further: test concentration or dose not given here
- measurementSetup: with B14; scale: % of reporter cells activated
reportedEndpoint: ratio to parent
Number only, please.

Solved entries (count: 5):
>  <alteration>
chain 5 E6Q

>  <ratio to parent>
0.876

$$$$
>  <alteration>
chain 5 F5L

>  <ratio to parent>
1.11

$$$$
>  <alteration>
chain 5 I2P

>  <ratio to parent>
2.36

$$$$
>  <alteration>
chain 5 N4K

>  <ratio to parent>
1.37

$$$$
>  <alteration>
chain 5 I3Y

>  <ratio to parent>
1.28

$$$$

Consider the variant chain 5 L8F and give its measured ratio to parent. 0.44

Consider the variant chain 5 E6S and give its measured ratio to parent. 0.751

Consider the variant chain 5 F5I and give its measured ratio to parent. 0.831

Consider the variant chain 5 E6T and give its measured ratio to parent. 1.41

Consider the variant chain 5 I3F and give its measured ratio to parent. 1

Consider the variant chain 5 I2C and give its measured ratio to parent. 0.933

Consider the variant chain 5 I3H and give its measured ratio to parent. 1.78

Consider the variant chain 5 I2Y and give its measured ratio to parent. 0.88
